Overview of reported pIC50 across a group of compounds:
Molecular target: RIPK1 (Homo sapiens (Human), UniProt Q13546)
Sequence (Q13546 whole entry, species assumed): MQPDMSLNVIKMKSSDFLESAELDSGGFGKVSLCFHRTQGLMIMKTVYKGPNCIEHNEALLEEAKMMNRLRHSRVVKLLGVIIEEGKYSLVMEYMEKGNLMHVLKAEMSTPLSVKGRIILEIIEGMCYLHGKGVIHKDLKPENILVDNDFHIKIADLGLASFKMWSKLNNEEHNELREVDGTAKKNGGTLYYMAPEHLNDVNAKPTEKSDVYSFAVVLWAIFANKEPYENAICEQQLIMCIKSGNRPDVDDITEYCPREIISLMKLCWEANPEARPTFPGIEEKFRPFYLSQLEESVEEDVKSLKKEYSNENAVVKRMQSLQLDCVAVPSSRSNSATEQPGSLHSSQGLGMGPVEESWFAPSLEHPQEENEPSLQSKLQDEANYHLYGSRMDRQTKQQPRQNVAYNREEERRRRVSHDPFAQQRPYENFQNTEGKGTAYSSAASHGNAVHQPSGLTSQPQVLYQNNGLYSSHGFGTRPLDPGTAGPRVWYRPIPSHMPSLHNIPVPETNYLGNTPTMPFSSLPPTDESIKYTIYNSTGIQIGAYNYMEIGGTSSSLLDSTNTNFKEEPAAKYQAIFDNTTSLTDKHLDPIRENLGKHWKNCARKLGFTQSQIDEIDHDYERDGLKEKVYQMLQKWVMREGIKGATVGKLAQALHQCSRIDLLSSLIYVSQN
Test: biochemical
Format: biochemical
Conditions: RIPK1 enzyme 31 ng/well, 30° C. for 30 minutes, luminescence; read-out: RIPK1 ADP-Glo Kinase (IC50)
pIC50: −log10 of the molar value.
resultType: pIC50

- compound: "O=C(N[C@H]1COc2ccccc2-n2nnnc21)c1ncn(Cc2ccccc2F)n1 [Compound I-21]"
  resultType: "pIC50"
  measValue: 7.25
- compound: "O=C(N[C@H]1CSc2ccccc2-n2c1noc2=O)c1cc(Cc2ccccc2)on1 [Compound I-28]"
  resultType: "pIC50"
  measValue: 7.17
- compound: "O=C(NC1CCc2ccc(N3CC4(CCOCC4)C3)cc2-n2ccnc21)c1ccn(Cc2ccccc2)n1 (racemic) [Compound I-85]"
  resultType: "pIC50"
  measValue: 6.77
- compound: "O=C(N[C@H]1COc2ccc(N3CC4(CCOCC4)C3)cc2-n2ccnc21)c1cc(Oc2ccccc2)ccn1 [Compound I-88]"
  resultType: "pIC50"
  measValue: 6.95
- compound: "CC(C)(O)C#Cc1ccc2c(c1)-n1nnnc1[C@@H](NC(=O)c1n[nH]c(Cc3ccccc3)n1)CO2 [Compound I-69]"
  resultType: "pIC50"
  measValue: 7.22
- compound: "O=C(NC1CCc2ccc(N3CCC4(CCOCC4)CC3)cc2-n2ccnc21)c1cc(Oc2ccccc2)ccn1 (racemic) [Compound I-62]"
  resultType: "pIC50"
  measValue: 7.16
- compound: "O=C(NC1CCc2ccccc2-n2c1noc2=O)c1cc(Oc2ccccc2)ccn1 (racemic) [Compound I-52]"
  resultType: "pIC50"
  measValue: 7.49

###

System: U937 cells
Experiment: U937 cell necroptosis assay (TNFa + zVAD, CellTiter-Glo recovery), functional human RIP1 assay
Assay type: cell-based
Settings: read-out: U937 Zvad TNF CTG Recovery, U937, TNFa + zVAD (IC50); U937 cells, zVAD-fmk, TNFa 2 ng/mL, 18 hours, CellTiter-Glo
Overview of reported IC50 across a group of compounds:

- compound: "O=C(NC1CCc2ccccc2-n2ccnc21)c1ncn(Cc2c(Cl)cccc2Cl)n1 (single isomer, unassigned) [Compound I-12]"
  target: "U937 cells"
  unitAbbreviation: "µM"
  IC50: 17
- compound: "O=C(NC1CCc2ccccc2-n2ccnc21)c1n[nH]c(Cc2ccccc2)n1 (single isomer, unassigned) [Compound I-4]"
  target: "U937 cells"
  unitAbbreviation: "µM"
  IC50: 0.203
- compound: "O=C(NC1CCc2ccccc2-n2ccnc21)c1n[nH]c(Cc2ccccc2)n1 (single isomer, unassigned) [Compound I-5]"
  target: "U937 cells"
  unitAbbreviation: "µM"
  IC50: 86.6
- compound: "O=C(NC1CCc2ccccc2-n2ccnc21)c1ncn(Cc2c(Cl)cccc2Cl)n1 (single isomer, unassigned) [Compound I-13]"
  target: "U937 cells"
  unitAbbreviation: "µM"
  IC50: 0.003

###

Target: RIPK1 (Homo sapiens (Human))
Assay: biochemical
Type: biochemical
Settings: RIPK1 enzyme 31 ng/well, 30° C. for 30 minutes, luminescence; read-out: RIPK1 ADP-Glo Kinase (IC50)
pIC50: −log10 of the molar value.
Use 6 as the dividing line for pIC50, with the line itself on the y side and lower values as n.

- compound: "O=C(NC1CCc2ccc(CN3CCN(c4ccncc4)CC3)cc2-n2ccnc21)c1ncn(Cc2c(Cl)cccc2Cl)n1 (racemic) [Compound I-47]"
  target: "RIPK1 (Homo sapiens (Human))"
  class: "y"
- compound: "O=C(N[C@H]1COc2ccccc2-n2c1noc2=O)c1cc(Oc2ccccc2)ccn1 [Compound I-53]"
  target: "RIPK1 (Homo sapiens (Human))"
  class: "y"
- compound: "O=C(N[C@H]1CSc2ccccc2-n2nnnc21)c1n[nH]c(Cc2ccccc2)n1 [Compound I-24]"
  target: "RIPK1 (Homo sapiens (Human))"
  class: "y"
- compound: "O=C(NC1CCc2ccccc2-n2cnnc21)c1ncn(Cc2c(Cl)cccc2Cl)n1 (racemic) [Compound I-58]"
  target: "RIPK1 (Homo sapiens (Human))"
  class: "y"
- compound: "O=C(NC1COc2ccccc2-n2cccc21)c1n[nH]c(Cc2ccccc2)n1 (racemic) [Compound I-34]"
  target: "RIPK1 (Homo sapiens (Human))"
  class: "y"
- compound: "Cc1cn2c(n1)C(NC(=O)c1ncn(Cc3c(Cl)cccc3Cl)n1)CCc1ccccc1-2 (racemic) [Compound I-35]"
  target: "RIPK1 (Homo sapiens (Human))"
  class: "n"
- compound: "O=C(N[C@H]1CSc2ccccc2-n2nnnc21)c1cc(Cc2ccccc2)on1 [Compound I-23]"
  target: "RIPK1 (Homo sapiens (Human))"
  class: "y"
- compound: "O=C(NC1CCc2ccccc2-n2c1nc(Cl)c2Cl)c1n[nH]c(Cc2ccccc2)n1 (racemic) [Compound I-80]"
  target: "RIPK1 (Homo sapiens (Human))"
  class: "n"
- compound: "O=C(N[C@H]1CSc2ccccc2-n2c1noc2=O)c1n[nH]c(Cc2ccc(F)cc2)n1 [Compound I-31]"
  target: "RIPK1 (Homo sapiens (Human))"
  class: "y"
- compound: "O=C(NC1CCc2ccc(N3CCC4(CCOCC4)CC3)cc2-n2ccnc21)c1ccn(Cc2ccccc2)n1 (racemic) [Compound I-77]"
  target: "RIPK1 (Homo sapiens (Human))"
  class: "y"
- compound: "O=C(N[C@H]1COc2ccc(C#Cc3ccccn3)cc2-n2ccnc21)c1n[nH]c(Cc2ccccc2)n1 [Compound I-89]"
  target: "RIPK1 (Homo sapiens (Human))"
  class: "y"
- compound: "O=C(N[C@H]1COc2ccccc2-n2nnnc21)c1n[nH]c(Cc2ccccc2)n1 [Compound I-3]"
  target: "RIPK1 (Homo sapiens (Human))"
  class: "y"
- compound: "O=C(NC1CCc2ccccc2-n2c1n[nH]c2=O)c1ncn(Cc2c(Cl)cccc2Cl)n1 (racemic) [Compound I-36]"
  target: "RIPK1 (Homo sapiens (Human))"
  class: "n"
- compound: "O=C(N[C@H]1COc2ccccc2-n2c1noc2=O)c1ncn(Cc2c(Cl)cccc2Cl)n1 [Compound I-42]"
  target: "RIPK1 (Homo sapiens (Human))"
  class: "y"
- compound: "CC(C)(O)C#Cc1ccc2c(c1)-n1ccnc1C(NC(=O)c1cc(Oc3ccccc3)ccn1)CC2 (racemic) [Compound I-56]"
  target: "RIPK1 (Homo sapiens (Human))"
  class: "y"
- compound: "O=C(NC1CCc2ccccc2-n2ccnc21)c1cc(Oc2ccccc2)ccn1 (racemic) [Compound I-51]"
  target: "RIPK1 (Homo sapiens (Human))"
  class: "y"
- compound: "O=C(NC1CCc2ccccc2-n2cnnc21)c1ncn(Cc2ccccc2)n1 (racemic) [Compound I-63]"
  target: "RIPK1 (Homo sapiens (Human))"
  class: "y"
- compound: "O=C(NC1CCc2ccccc2-n2c(Cl)cnc21)c1n[nH]c(Cc2ccccc2)n1 (racemic) [Compound I-81]"
  target: "RIPK1 (Homo sapiens (Human))"
  class: "y"
- compound: "O=C(N[C@H]1CSc2ccccc2-n2c1noc2=O)c1ncn(Cc2ccc(F)cc2)n1 [Compound I-32]"
  target: "RIPK1 (Homo sapiens (Human))"
  class: "y"
- compound: "O=C1c2nn(Cc3ccccc3)c(Cl)c2CN1[C@H]1COc2ccccc2-n2nnnc21 [Compound I-79]"
  target: "RIPK1 (Homo sapiens (Human))"
  class: "y"
- compound: "O=C(NC1Cc2ccccc2-n2ccnc21)c1n[nH]c(Cc2ccccc2)n1 (racemic) [Compound I-66]"
  target: "RIPK1 (Homo sapiens (Human))"
  class: "n"
- compound: "O=C(N[C@H]1COc2ccccc2-n2nnnc21)c1ncn(Cc2c(Cl)cccc2Cl)n1 [Compound I-11]"
  target: "RIPK1 (Homo sapiens (Human))"
  class: "y"

The measured values listed here are drawn from patent US11667643B2.
